Entry source: paper PMC12281475

molecular target: CDK9_CycK (Homo sapiens, UniProt P50750); construct: purchased Reaction Biology; assay: Radiometric protein kinase assay (33PanQinase), CDK9_CycK; assay type: biochemical; details: slope of the IC50 fit
Sequence (P50750 whole entry): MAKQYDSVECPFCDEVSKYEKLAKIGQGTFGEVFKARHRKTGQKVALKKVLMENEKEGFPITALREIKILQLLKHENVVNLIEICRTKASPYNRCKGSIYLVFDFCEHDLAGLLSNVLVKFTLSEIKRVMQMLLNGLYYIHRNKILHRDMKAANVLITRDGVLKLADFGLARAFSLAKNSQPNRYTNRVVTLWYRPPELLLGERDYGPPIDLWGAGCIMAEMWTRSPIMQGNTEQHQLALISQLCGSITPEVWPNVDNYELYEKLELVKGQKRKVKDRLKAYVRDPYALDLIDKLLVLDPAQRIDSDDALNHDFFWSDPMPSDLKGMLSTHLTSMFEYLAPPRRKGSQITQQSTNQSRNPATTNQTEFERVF
Sequence (O75909 whole entry partner): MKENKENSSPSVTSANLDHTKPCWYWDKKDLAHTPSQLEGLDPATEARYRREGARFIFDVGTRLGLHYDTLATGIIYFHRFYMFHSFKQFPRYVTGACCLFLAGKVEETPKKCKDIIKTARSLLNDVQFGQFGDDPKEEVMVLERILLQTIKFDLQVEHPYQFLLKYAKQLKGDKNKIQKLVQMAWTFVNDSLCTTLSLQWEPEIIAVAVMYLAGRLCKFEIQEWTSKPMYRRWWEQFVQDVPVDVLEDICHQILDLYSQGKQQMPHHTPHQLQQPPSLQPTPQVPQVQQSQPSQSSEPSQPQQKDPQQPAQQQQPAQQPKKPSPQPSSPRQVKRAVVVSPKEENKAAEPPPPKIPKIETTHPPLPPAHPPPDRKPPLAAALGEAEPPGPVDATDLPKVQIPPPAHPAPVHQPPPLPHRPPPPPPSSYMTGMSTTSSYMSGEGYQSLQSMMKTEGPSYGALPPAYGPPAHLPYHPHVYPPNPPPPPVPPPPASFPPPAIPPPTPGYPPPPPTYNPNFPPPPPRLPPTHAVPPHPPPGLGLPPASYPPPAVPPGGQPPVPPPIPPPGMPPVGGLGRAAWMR
MEASURED ENDPOINT: Hill Slope
A bare number is all that is needed in reply.

Here is how some compounds turned out for Hill Slope.
[[record]]
compound = "Cc1n[nH]c2ncc(C(=O)N3CCC[C@H]3c3ccc(Cl)cc3)cc12"
measured_result = -0.78

[[record]]
compound = "CN1CCN(C(=O)c2ccc3cc(CCNc4ncnc5ccc(C#N)cc45)ccc3c2)CC1 [Senexin B, reference compound]"
measured_result = -0.6

[[record]]
compound = "Cn1cc(-c2ccc(-c3cncc(Cl)c3N3CCC4(CCNC4=O)CC3)cc2)cn1"
measured_result = -0.78

[[record]]
compound = "Cc1c(Br)c(Br)c2c3c1nc(N1CCNCC1)n3CCC2.Cl [SEL120-34A, reference compound]"
measured_result = -1.14


Read the next record carefully.
Exercise: Hill Slope for "Cn1ncc2cc(-c3cnc(N)c(Cl)c3N3CCC4(CCNC4=O)CC3)ccc21" ?
Solution: -0.77

====

biological target: CDK5_p25NCK (Homo sapiens, UniProt Q00535)
Sequence (Q00535 whole entry): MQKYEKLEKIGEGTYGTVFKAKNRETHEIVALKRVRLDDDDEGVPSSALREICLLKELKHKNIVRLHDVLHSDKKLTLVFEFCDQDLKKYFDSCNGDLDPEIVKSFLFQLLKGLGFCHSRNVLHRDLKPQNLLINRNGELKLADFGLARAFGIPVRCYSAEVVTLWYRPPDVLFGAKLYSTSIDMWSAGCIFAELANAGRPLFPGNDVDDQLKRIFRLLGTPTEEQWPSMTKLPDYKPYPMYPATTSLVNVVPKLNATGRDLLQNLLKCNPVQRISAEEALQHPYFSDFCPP
Sequence (Q15078 99-307 partner limits assumed): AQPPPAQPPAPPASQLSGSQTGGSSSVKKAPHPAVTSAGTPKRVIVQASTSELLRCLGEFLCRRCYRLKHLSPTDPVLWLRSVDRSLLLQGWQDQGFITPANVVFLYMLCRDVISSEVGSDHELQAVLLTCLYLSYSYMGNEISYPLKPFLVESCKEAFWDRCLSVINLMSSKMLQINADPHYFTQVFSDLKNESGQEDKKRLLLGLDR
IC50 reference

Here is how some compounds turned out for IC50.
[[record]]
compound = "Cc1n[nH]c2ncc(C(=O)N3CCC[C@H]3c3ccc(Cl)cc3)cc12"
measured_result = "> 10 µM"

[[record]]
compound = "CN1CCN(C(=O)c2ccc3cc(CCNc4ncnc5ccc(C#N)cc45)ccc3c2)CC1 [Senexin B, reference compound]"
measured_result = "> 10 µM"

[[record]]
compound = "Cn1cc(-c2ccc(-c3cncc(Cl)c3N3CCC4(CCNC4=O)CC3)cc2)cn1"
measured_result = "> 10 µM"


Exercise: Query for CDK5_p25NCK (Homo sapiens, UniProt Q00535): what IC50 does the record show for Cc1c(Br)c(Br)c2c3c1nc(N1CCNCC1)n3CCC2.Cl [SEL120-34A, reference compound] ?
Solution: 7.39 µM

====

target: CDK2_CycD1 (Homo sapiens, UniProt P24941); construct: purchased Reaction Biology; experiment: Radiometric protein kinase assay (33PanQinase), CDK2_CycD1; format: biochemical; details: slope of the IC50 fit
MEASURED ENDPOINT: Hill Slope
A bare number is all that is needed in reply.

Here is how some compounds turned out for Hill Slope.
[[record]]
compound = "Cn1ncc2cc(-c3cnc(N)c(Cl)c3N3CCC4(CCNC4=O)CC3)ccc21"
measured_result = 0

[[record]]
compound = "Cc1c(Br)c(Br)c2c3c1nc(N1CCNCC1)n3CCC2.Cl [SEL120-34A, reference compound]"
measured_result = -0.7


Exercise: Hill Slope for "Cc1n[nH]c2ncc(C(=O)N3CCC[C@H]3c3ccc(Cl)cc3)cc12" ?
Solution: -1.08

Exercise: Hill Slope for "Cn1cc(-c2ccc(-c3cncc(Cl)c3N3CCC4(CCNC4=O)CC3)cc2)cn1" ?
Solution: -0.29

Exercise: Hill Slope for CN1CCN(C(=O)c2ccc3cc(CCNc4ncnc5ccc(C#N)cc45)ccc3c2)CC1 [Senexin B, reference compound] ?
Solution: -0.18

====

target: CDK3_CycE1 (Homo sapiens, UniProt Q00526); construct: purchased Reaction Biology; experiment: Radiometric protein kinase assay (33PanQinase), CDK3_CycE1; assay type: biochemical; settings: highest assay concentration 1.00E-05 M; read-out: IC50
Sequence (Q00526 whole entry): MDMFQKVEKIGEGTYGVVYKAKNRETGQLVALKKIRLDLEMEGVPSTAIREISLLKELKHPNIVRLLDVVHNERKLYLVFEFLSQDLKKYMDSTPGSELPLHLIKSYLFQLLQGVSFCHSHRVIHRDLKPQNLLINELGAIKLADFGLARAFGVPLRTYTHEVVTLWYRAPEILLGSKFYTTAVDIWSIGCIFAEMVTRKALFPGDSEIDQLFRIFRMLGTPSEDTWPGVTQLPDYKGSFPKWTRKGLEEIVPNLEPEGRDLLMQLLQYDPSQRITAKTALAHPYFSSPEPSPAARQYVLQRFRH
Sequence (P24864 whole entry partner): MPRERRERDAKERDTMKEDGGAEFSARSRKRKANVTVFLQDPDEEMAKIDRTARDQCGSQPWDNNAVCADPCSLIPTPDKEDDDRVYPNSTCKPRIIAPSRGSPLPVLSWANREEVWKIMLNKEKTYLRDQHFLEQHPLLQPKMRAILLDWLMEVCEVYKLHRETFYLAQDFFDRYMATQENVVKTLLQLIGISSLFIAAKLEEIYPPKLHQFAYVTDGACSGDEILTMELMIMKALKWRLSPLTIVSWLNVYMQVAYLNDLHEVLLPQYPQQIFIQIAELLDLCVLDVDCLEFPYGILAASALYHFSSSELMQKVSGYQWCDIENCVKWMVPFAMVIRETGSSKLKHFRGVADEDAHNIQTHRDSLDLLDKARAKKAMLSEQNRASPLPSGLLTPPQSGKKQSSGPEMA
pIC50: −log10 of the molar value.
MEASURED ENDPOINT: pIC50

Exercise: pIC50 for CN1CCN(C(=O)c2ccc3cc(CCNc4ncnc5ccc(C#N)cc45)ccc3c2)CC1 [Senexin B, reference compound] ?
Solution: < 5.00

====

molecular target: CDK13_CycK (Homo sapiens); construct: purchased Reaction Biology; test: Radiometric protein kinase assay (33PanQinase), CDK13_CycK; type: biochemical
MEASURED ENDPOINT: IC50

Exercise: IC50 for "Cc1n[nH]c2ncc(C(=O)N3CCC[C@H]3c3ccc(Cl)cc3)cc12" ?
Solution: > 10 µM

====

target: CDK20_CycT1 (Homo sapiens, UniProt Q8IZL9); assay: Radiometric protein kinase assay (33PanQinase), CDK20_CycT1; assay type: biochemical; conditions: slope of the IC50 fit
The label depends only on Hill Slope: met if it is at least -0.4, not met if it is smaller.

Answered cases to consult:
[[record]]
molecule = "Cc1c(Br)c(Br)c2c3c1nc(N1CCNCC1)n3CCC2.Cl [SEL120-34A, reference compound]"
assigned_label = "not met"

[[record]]
molecule = "CN1CCN(C(=O)c2ccc3cc(CCNc4ncnc5ccc(C#N)cc45)ccc3c2)CC1 [Senexin B, reference compound]"
assigned_label = "not met"

[[record]]
molecule = "Cc1n[nH]c2ncc(C(=O)N3CCC[C@H]3c3ccc(Cl)cc3)cc12 [MSC2530818]"
assigned_label = "not met"


# ---- query molecule ----
Exercise: Please tell me: is the molecule Cn1ncc2cc(-c3cnc(N)c(Cl)c3N3CCC4(CCNC4=O)CC3)ccc21 [CCT251921] at or over -0.4 in terms of Hill Slope?
Solution: met

====

IC50 reference
biological target: CDK20_CycH (Homo sapiens, UniProt Q8IZL9)
Sequence (Q8IZL9 whole entry): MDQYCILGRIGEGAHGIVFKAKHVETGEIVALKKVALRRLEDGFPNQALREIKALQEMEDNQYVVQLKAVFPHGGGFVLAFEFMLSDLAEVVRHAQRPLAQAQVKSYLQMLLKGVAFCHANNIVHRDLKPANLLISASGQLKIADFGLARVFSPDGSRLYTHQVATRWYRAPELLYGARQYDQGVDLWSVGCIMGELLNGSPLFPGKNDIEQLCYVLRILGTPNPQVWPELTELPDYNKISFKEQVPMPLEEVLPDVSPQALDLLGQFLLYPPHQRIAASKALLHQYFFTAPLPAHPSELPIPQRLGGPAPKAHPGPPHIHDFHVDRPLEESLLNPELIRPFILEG

[[record]]
molecule = "Cc1n[nH]c2ncc(C(=O)N3CCC[C@H]3c3ccc(Cl)cc3)cc12 [MSC2530818]"
study_target = "CDK20_CycH (Homo sapiens, UniProt Q8IZL9)"
measured_endpoint = "IC50"
measured_result = "> 10 µM"

[[record]]
molecule = "Cn1cc(-c2ccc(-c3cncc(Cl)c3N3CCC4(CCNC4=O)CC3)cc2)cn1 [CCT251545]"
study_target = "CDK20_CycH (Homo sapiens, UniProt Q8IZL9)"
measured_endpoint = "IC50"
measured_result = "> 10 µM"

[[record]]
molecule = "Cn1ncc2cc(-c3cnc(N)c(Cl)c3N3CCC4(CCNC4=O)CC3)ccc21 [CCT251921]"
study_target = "CDK20_CycH (Homo sapiens, UniProt Q8IZL9)"
measured_endpoint = "IC50"
measured_result = "> 10 µM"

[[record]]
molecule = "CN1CCN(C(=O)c2ccc3cc(CCNc4ncnc5ccc(C#N)cc45)ccc3c2)CC1 [Senexin B, reference compound]"
study_target = "CDK20_CycH (Homo sapiens, UniProt Q8IZL9)"
measured_endpoint = "IC50"
measured_result = "> 10 µM"


Read the next record carefully.
Exercise: IC50 for Cc1c(Br)c(Br)c2c3c1nc(N1CCNCC1)n3CCC2.Cl [SEL120-34A, reference compound] ?
Solution: 1.13 µM

====

biological target: CDK3_CycC (Homo sapiens, UniProt Q00526); construct: purchased Reaction Biology; experiment: Radiometric protein kinase assay (33PanQinase), CDK3_CycC; type: biochemical
Sequence (P24863 whole entry partner, one chain of several): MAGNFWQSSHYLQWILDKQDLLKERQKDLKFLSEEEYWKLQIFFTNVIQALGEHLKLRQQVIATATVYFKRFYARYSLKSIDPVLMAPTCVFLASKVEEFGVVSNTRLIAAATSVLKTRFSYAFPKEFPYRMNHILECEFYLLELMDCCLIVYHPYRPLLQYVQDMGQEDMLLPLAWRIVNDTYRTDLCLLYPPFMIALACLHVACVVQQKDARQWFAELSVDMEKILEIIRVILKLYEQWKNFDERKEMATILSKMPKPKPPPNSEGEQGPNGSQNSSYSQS
pIC50: −log10 of the molar value.
MEASURED ENDPOINT: pIC50

Exercise: Query for CDK3_CycC (Homo sapiens, UniProt Q00526): what pIC50 does the record show for "Cn1cc(-c2ccc(-c3cncc(Cl)c3N3CCC4(CCNC4=O)CC3)cc2)cn1" ?
Solution: < 5.00

Exercise: Query for CDK3_CycC (Homo sapiens, UniProt Q00526): what pIC50 does the record show for "Cn1ncc2cc(-c3cnc(N)c(Cl)c3N3CCC4(CCNC4=O)CC3)ccc21" ?
Solution: < 5.00

Exercise: Query for CDK3_CycC (Homo sapiens, UniProt Q00526): what pIC50 does the record show for "Cc1n[nH]c2ncc(C(=O)N3CCC[C@H]3c3ccc(Cl)cc3)cc12" ?
Solution: 5.19

====

IC50 reference
target: CDK1_CycA2 (Homo sapiens); construct: purchased Reaction Biology; test: Radiometric protein kinase assay (33PanQinase), CDK1_CycA2; type: biochemical; conditions: highest assay concentration 1.00E-05 M; read-out: IC50
Sequence (P06493 whole entry): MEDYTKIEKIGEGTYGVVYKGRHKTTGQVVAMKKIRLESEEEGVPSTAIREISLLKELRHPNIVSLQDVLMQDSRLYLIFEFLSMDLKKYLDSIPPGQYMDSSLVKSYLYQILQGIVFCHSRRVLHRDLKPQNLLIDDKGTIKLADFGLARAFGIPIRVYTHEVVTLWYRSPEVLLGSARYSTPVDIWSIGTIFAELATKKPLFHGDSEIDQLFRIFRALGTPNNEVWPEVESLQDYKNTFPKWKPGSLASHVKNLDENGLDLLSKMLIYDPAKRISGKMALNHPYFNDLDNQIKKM
Sequence (P20248 whole entry partner): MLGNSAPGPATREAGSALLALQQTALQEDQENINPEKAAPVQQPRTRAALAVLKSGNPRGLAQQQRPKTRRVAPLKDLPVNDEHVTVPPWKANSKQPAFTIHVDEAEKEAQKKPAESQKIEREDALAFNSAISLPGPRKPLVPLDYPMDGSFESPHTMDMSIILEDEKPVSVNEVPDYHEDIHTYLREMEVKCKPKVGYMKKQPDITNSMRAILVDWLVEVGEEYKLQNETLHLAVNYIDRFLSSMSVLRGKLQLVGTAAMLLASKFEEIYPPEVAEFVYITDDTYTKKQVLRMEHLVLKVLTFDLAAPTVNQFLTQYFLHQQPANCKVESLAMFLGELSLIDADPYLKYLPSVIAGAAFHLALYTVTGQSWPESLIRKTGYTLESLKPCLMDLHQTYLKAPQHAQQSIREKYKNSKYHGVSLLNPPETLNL

Here is how some molecules turned out for IC50.
[[record]]
molecule = "Cn1cc(-c2ccc(-c3cncc(Cl)c3N3CCC4(CCNC4=O)CC3)cc2)cn1"
study_target = "CDK1_CycA2 (Homo sapiens)"
measured_endpoint = "IC50"
measured_result = "> 10 µM"

[[record]]
molecule = "Cn1ncc2cc(-c3cnc(N)c(Cl)c3N3CCC4(CCNC4=O)CC3)ccc21"
study_target = "CDK1_CycA2 (Homo sapiens)"
measured_endpoint = "IC50"
measured_result = "> 10 µM"


Exercise: IC50 for Cc1c(Br)c(Br)c2c3c1nc(N1CCNCC1)n3CCC2.Cl [SEL120-34A, reference compound] ?
Solution: 7.1 µM

====

biological target: CDK11B 357-795_CycK (Homo sapiens, UniProt P21127); test: Radiometric protein kinase assay (33PanQinase), CDK11B 357-795_CycK; format: biochemical; details: slope of the IC50 fit
Sequence (P21127 357-795): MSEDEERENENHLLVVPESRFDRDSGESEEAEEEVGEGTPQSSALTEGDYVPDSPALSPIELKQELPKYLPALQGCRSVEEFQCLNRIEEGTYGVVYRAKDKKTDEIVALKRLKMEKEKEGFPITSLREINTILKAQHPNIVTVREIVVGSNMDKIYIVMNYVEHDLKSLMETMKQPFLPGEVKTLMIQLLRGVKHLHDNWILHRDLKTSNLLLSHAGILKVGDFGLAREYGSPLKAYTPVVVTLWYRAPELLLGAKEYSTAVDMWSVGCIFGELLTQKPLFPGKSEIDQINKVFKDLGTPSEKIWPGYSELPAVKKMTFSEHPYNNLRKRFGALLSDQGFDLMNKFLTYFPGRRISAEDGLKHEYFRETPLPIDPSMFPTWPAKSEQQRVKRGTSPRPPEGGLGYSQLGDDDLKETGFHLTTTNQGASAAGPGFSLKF
The label depends only on Hill Slope: Satisfied if it is at least -0.4, Not satisfied if it is smaller.

Answered cases to consult:
[[record]]
molecule = "Cn1cc(-c2ccc(-c3cncc(Cl)c3N3CCC4(CCNC4=O)CC3)cc2)cn1 [CCT251545]"
assigned_label = "Not satisfied"

[[record]]
molecule = "CN1CCN(C(=O)c2ccc3cc(CCNc4ncnc5ccc(C#N)cc45)ccc3c2)CC1 [Senexin B, reference compound]"
assigned_label = "Satisfied"

[[record]]
molecule = "Cc1n[nH]c2ncc(C(=O)N3CCC[C@H]3c3ccc(Cl)cc3)cc12 [MSC2530818]"
assigned_label = "Not satisfied"


# ---- query molecule ----
Exercise: Please tell me: is the molecule Cc1c(Br)c(Br)c2c3c1nc(N1CCNCC1)n3CCC2.Cl [SEL120-34A, reference compound] at or over -0.4 in terms of Hill Slope?
Solution: Not satisfied
